// data source = PubChem BioAssay (NCI)

# TGI per record follows
# System: ACHN renal
# PROCEDURE DETAILS: NCI tumour cell line growth inhibition, 48 h

# example entries with known answers
O=[N+]([O-])c1cccc(-c2oc(C=Nc3ccccc3)c([N+](=O)[O-])c2-c2cccc([N+](=O)[O-])c2)c1
> 100 µM
CC(=O)OC(CCC1(C)OC1COc1ccc(CCNC(=O)c2ccccc2)cc1)C(C)(C)OC(C)=O (centres undefined)
> 100 µM
CCCCNC(=S)Nc1nc(C(=O)NNC(=S)NC2CCCCC2)cs1
> 100 µM

Form: compound = COC(=O)C1=C(C)NC(C)=C(C(=O)OC)C1/C=C(Cl)/C=C/c1ccccc1 ; TGI = 76 µM

Form: compound = CC(C)(C)c1cc2c3c(c1)C(C(F)(F)F)(C(F)(F)F)O[Te]3(C)OC2(C(F)(F)F)C(F)(F)F ; TGI = > 100 µM

Form: compound = Cn1ccnc1C(=O)/C=C/c1ccccc1 ; TGI = 20.3 µM

Form: compound = COc1cc(COC(=O)N(CC(=O)O)c2ccccc2)c([N+](=O)[O-])cc1OC ; TGI = > 100 µM

Form: compound = CSc1c(C#N)c(N)nc2c(N=Nc3ccc(Cl)cc3)c(N)nn12 ; TGI = 12.4 µM

Form: compound = CC(=O)c1ccc(NC(=O)C(=O)Nn2c(=S)[nH]c3ccccc3c2=O)cc1 ; TGI = > 100 µM

----------
# Tested on: NCI-H23 lung
# PROCEDURE DETAILS: NCI tumour cell line growth inhibition, 48 h
METRIC NAME: GI50

COc1cc2c(cc1C)NC(=O)/C2=C\c1cccc(Oc2ccccc2)c1
13.6 µM
O=[N+]([O-])c1c(Br)sc(Br)c1[N+](=O)[O-]
11.3 µM
C=C1CCC2C(C)(C)CCC[C@]2(C)[C@H]1CO (stereo not given in full)
46.1 µM
COc1cc(C2=C(C#Cc3ccccc3)COC2=O)cc(OC)c1OC
5.51 µM

Form: compound = CCN(C(=O)c1cc(F)ccc1Oc1cncnc1N1CC2(CCN(CC3CCC(NS(=O)(=O)CC)CC3)CC2)C1)C(C)C (stereo not given) ; GI50 = > 100 µM

Form: compound = COc1ccc2c(c1)C(=O)c1c-2c(Nc2ccc(Cl)cc2)nc2ccccc12 ; GI50 = 13.6 µM

Form: compound = N#CSCC1CC(O)(c2ccccc2)CC(c2ccc(F)cc2)O1 (stereo not given) ; GI50 = 2.02 µM

Form: compound = Oc1[nH]c2ccc(Cl)cc2c1/C=c1/ccc2c(c1)N=C(c1ccc(F)cc1)N=2 ; GI50 = 1.65 µM

Form: compound = CO/N=C(\C)COc1ccc2c(=O)c(-c3ccccc3)coc2c1 ; GI50 = 26.4 µM

Form: compound = CC(C)CCN=C(N)c1ccc(N2CCN(c3ccc(C(N)=NCCC(C)C)cc3)CC2)cc1 ; GI50 = 3.75 µM

----------
# TGI per record follows
# Tested on: SNB-75 CNS
# PROCEDURE DETAILS: NCI tumour cell line growth inhibition, 48 h

COC(=O)C1=C(C)NC(C)=C(C(=O)OC)C1/C=C(Cl)/C=C/c1ccccc1
54.8 µM
CCCCCCCCCCCCCP(=O)(O)OCC
> 100 µM

Form: compound = Fc1ccc2nc3n(c2c1)C(c1c(Cl)cccc1Cl)SC3 (configuration not stated) ; TGI = > 100 µM

Form: compound = CCOC(=O)C(O)(NC(=O)c1ccccc1F)C(F)(F)F (configuration not stated) ; TGI = > 100 µM

Form: compound = NCCCNC1(c2cc3ccccc3s2)CCCCC1 ; TGI = 24.2 µM

Form: compound = COc1cc(O)c(C(=O)/C=C/c2ccc(O)cc2)c(O)c1[C@@H]1C[C@H](CCc2ccc(O)cc2)O[C@H](c2ccc(O)cc2)C1 ; TGI = 7.44 µM

Form: compound = CC(C)[Si](OC1=CCC[C@H]2NC(=O)[C@@H](Cc3ccccc3)[C@@]12C)(C(C)C)C(C)C ; TGI = 31.2 µM

Form: compound = C1=CC=C2NCCCNC3=CC=CC=CC3=NCCCN=C2C=C1 ; TGI = > 100 µM

Form: compound = CCN(C(=O)c1cc(F)ccc1Oc1cncnc1N1CC2(CCN(CC3CCC(NS(=O)(=O)CC)CC3)CC2)C1)C(C)C (configuration not stated) ; TGI = > 100 µM

Form: compound = N#Cc1c(N)nc(N2CCOCC2)c(C#N)c1-c1cccnc1 ; TGI = 43.6 µM
